Cited source: patent US11266636B2

Assign solubility at 22 h to each entry below.
Assay: Solubility determination in different pharmaceutical excipients at ambient temperature
Conditions: 30% hydroxypropyl-β-cyclodextrin (HP-beta CD), aqueous with cosolvent or surfactant or cyclodextrin, thermodynamic from solid, Solubility in 30% HP-beta CD, 30% Hydroxypropyl-β-cyclodextrin, ambient temperature
Please reply with the bare figure in mg/mL and do not write the unit itself.

q: Bench note: what solubility at 22 h did Cc1nc(N(C)C(=O)Cc2ccc(-c3ccccn3)cc2)sc1S(N)(=O)=O [free base of pritelivir, reference compound] show?
a: 1.91

q: Need solubility at 22 h, item Cc1nc(N(C)C(=O)Cc2ccc(-c3ccccn3)cc2)sc1S(N)(=O)=O.O=C(O)/C=C\C(=O)O [maleate salt]
a: 24.1

###

Please go through the items and note down their solubility at 22 h.
Experiment: Solubility determination in different pharmaceutical excipients at ambient temperature
Conditions: polyethylene glycol (PEG 400), organic solvent or mixture, thermodynamic from solid, Solubility in polyethylene glycol (PEG 400), PEG 400, ambient temperature
Response body: numeric value in mg/mL, unit text excluded.

q: Request the reported solubility at 22 h associated with Cc1nc(N(C)C(=O)Cc2ccc(-c3ccccn3)cc2)sc1S(N)(=O)=O.O=C(O)/C=C\C(=O)O [maleate salt]
a: 32.2

q: Fill in: solubility at 22 h of Cc1nc(N(C)C(=O)Cc2ccc(-c3ccccn3)cc2)sc1S(N)(=O)=O [free base of pritelivir, reference compound] is ___
a: 89.6

###

Assay: Solubility determination in different pharmaceutical excipients at ambient temperature
Conditions: 30% Captisol, aqueous with cosolvent or surfactant or cyclodextrin, thermodynamic from solid, Solubility in 30% Captisol, ambient temperature, 22 hours shaking
OBSERVATION_TYPE: solubility at 22 h (mg/mL)
Write the value in mg/mL as a bare number.

q: Request the reported solubility at 22 h associated with Cc1nc(N(C)C(=O)Cc2ccc(-c3ccccn3)cc2)sc1S(N)(=O)=O [free base of pritelivir, reference compound]
a: 1.79

q: Which solubility at 22 h is reported for this compound? Cc1nc(N(C)C(=O)Cc2ccc(-c3ccccn3)cc2)sc1S(N)(=O)=O.O=C(O)/C=C\C(=O)O [maleate salt]
a: 24.5

###

Experiment: Solubility determination in different pharmaceutical excipients at ambient temperature
Conditions: ethanol, organic solvent or mixture, thermodynamic from solid, Solubility in ethanol, ambient temperature
OBSERVATION_TYPE: solubility at 22 h
Answer with the value and then the unit.

q: Quick one: solubility at 22 h for Cc1nc(N(C)C(=O)Cc2ccc(-c3ccccn3)cc2)sc1S(N)(=O)=O.O=C(O)/C=C\C(=O)O [maleate salt] ?
a: 439 µg/mL
